Source: patent US20100068218A1

Reported IC50 values for the following binders.
# target_or_system: HLA-A*2402 (human)
# protocol_description: peptide-HLA binding inhibition assay
Give just the number in nM; leave the unit off.

// below: answered binders
{"binder": "RFSWLSLLVPF (modifications not checked) [HBV env 332 epitope …]", "measured_number": 12}
{"binder": "LWFHISCLTF (modifications not checked) [HBV core 101 epitope …]", "measured_number": 6.7}
{"binder": "SFCGSPYSW (modifications not checked) [HBV pol 167 epitope …]", "measured_number": 146}

// below: IC50 requested for another binder
Q: Looking for the measured IC50 of GYPALMPLY (modifications not checked) [HBV pol 639 epitope …] , can you help?
A: 280
